Known pIC50 of a selection of compounds
Target: ABL kinase (Homo sapiens, UniProt P00519)
Sequence (P00519 whole entry): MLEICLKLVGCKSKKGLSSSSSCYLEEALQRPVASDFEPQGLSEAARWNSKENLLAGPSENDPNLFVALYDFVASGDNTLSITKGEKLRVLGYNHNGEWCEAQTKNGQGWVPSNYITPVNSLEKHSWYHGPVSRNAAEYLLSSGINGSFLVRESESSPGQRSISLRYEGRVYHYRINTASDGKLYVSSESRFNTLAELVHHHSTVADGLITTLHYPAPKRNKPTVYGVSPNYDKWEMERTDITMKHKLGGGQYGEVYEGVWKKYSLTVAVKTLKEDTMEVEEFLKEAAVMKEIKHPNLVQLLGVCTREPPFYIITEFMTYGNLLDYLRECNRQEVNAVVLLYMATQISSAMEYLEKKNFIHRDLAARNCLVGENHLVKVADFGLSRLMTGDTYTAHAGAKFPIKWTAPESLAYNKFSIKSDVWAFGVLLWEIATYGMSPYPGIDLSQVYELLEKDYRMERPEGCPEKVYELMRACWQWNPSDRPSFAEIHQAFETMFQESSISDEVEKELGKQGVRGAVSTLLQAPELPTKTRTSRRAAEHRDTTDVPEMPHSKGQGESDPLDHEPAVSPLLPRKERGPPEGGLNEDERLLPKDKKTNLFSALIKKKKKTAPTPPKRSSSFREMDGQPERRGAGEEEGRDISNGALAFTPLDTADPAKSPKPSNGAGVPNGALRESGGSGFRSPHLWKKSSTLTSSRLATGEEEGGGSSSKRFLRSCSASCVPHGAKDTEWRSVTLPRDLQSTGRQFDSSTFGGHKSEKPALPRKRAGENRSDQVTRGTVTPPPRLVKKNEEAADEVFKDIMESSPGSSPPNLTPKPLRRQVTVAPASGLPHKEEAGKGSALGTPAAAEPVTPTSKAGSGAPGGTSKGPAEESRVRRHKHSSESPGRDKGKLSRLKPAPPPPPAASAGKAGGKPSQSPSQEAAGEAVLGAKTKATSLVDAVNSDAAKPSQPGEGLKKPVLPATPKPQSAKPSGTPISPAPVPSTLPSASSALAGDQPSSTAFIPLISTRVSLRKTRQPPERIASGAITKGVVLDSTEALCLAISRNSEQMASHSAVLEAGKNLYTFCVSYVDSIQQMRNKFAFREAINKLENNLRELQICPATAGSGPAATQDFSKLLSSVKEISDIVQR
Experiment: Luminescence ADP production kinase assay, ABL
pIC50: −log10 of the molar value.
Quantity Measured: pIC50

>>> result_value("COc1cc2ncnc(Nc3cccc(Cl)c3)c2cc1OC")
5.70
>>> result_value("CC[C@@]1(O)C(=O)OCc2c1cc1n(c2=O)Cc2cc3ccccc3nc2-1")
"< 5.00"
>>> result_value("CS(=O)(=O)CCNCc1nc(-c2ccc3ncnc(Nc4ccc(OCc5cccc(F)c5)c(Cl)c4)c3c2)cs1")
"< 5.00"
